# pEC50 per entry
- Assay System: human recombinant mGluR5 (Homo sapiens, UniProt P41594)
- Construct: hygromycin and geneticin selection, tetracycline-regulated
- Sequence (P41594 21-1212): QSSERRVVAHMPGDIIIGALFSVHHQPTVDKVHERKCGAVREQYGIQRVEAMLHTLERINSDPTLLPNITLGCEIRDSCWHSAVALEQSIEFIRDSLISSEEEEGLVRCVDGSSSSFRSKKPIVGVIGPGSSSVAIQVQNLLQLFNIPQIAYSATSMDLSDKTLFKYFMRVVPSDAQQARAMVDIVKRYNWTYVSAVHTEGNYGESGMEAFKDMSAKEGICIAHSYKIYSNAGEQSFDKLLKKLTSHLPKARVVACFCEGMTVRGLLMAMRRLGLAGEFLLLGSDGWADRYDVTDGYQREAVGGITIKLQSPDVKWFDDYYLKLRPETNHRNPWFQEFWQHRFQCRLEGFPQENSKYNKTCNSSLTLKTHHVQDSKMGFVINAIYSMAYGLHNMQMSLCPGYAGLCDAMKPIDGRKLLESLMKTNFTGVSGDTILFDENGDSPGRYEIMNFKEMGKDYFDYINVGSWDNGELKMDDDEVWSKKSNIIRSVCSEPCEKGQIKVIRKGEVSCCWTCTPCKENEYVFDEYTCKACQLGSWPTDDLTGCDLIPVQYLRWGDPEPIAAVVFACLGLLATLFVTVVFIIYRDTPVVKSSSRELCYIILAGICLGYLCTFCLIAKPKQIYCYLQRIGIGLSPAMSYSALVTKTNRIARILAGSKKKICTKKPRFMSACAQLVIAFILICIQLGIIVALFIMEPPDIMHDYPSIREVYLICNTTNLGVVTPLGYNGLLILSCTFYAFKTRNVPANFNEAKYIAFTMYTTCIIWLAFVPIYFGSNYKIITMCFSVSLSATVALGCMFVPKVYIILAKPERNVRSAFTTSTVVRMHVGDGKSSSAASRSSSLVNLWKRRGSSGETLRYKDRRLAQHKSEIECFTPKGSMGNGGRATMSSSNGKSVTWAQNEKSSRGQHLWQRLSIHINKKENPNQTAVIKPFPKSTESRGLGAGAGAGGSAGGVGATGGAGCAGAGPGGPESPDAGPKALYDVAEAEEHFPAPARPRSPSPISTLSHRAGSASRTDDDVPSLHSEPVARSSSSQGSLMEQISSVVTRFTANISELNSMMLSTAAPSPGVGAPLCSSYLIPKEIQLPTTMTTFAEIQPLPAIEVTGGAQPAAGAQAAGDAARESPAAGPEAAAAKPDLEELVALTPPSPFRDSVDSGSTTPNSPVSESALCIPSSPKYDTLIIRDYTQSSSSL
- Test Summary: Positive modulation of mGluR5, calcium based FLIPR assay in HEK 293 cell line
- Stated Conditions: EC50 of the modulation; HEK 293 cells expressing human recombinant mGluR5; glutamate at approximately 5% basal stimulation; peak height of Ca fluorescence signal
pEC50: −log10 of the molar value.

>  <Molecule>
Cc1nc2c(o1)CCN(C(=O)Cn1cc(-c3ccc(F)c(C)c3)nc1-c1ccccc1)C2 [Example 7.01.32]

>  <pEC50>
7.21

$$$$
>  <Molecule>
Cc1nc2c(o1)CN(C(=O)Cn1cc(-c3ccc(F)c(C)c3)nc1C1CCCCC1)CC2 [Example 7.01.04.]

>  <pEC50>
6.05

$$$$
>  <Molecule>
Cc1nc2c(s1)CN(C(=O)Cn1cc(-c3ccc(F)cc3)nc1-c1ccc(F)cc1)C2 [Example 7.01.16.]

>  <pEC50>
6.20

$$$$
>  <Molecule>
Cc1nc2c(s1)CN(C(=O)Cn1cc(-c3ccc(F)c(C)c3)nc1-c1ccc(F)cc1)C2 [Example 7.01.14.]

>  <pEC50>
7.19

$$$$

---

- Assay System: human recombinant mGluR5 (Homo sapiens, UniProt P41594)
- Construct: hygromycin and geneticin selection, tetracycline-regulated
- Test Summary: Positive modulation of mGluR5, calcium based FLIPR assay in HEK 293 cell line
- Stated Conditions: EC50 of the modulation; HEK 293 cells expressing human recombinant mGluR5; glutamate at approximately 5% basal stimulation; peak height of Ca fluorescence signal
pEC50: −log10 of the molar value.
# pEC50 per entry
Quantity Kind: pEC50

>  <Molecule>
Cc1nc2c(s1)CCN(C(=O)Cn1cc(-c3ccc(F)c(C)c3)nc1-c1ccccc1)CC2 [Example 7.01.01.]

>  <Quantity Kind>
pEC50

>  <Observed>
7.05

$$$$
>  <Molecule>
Cc1nc2c(o1)CCN(C(=O)Cn1cc(-c3ccc(F)c(C)c3)nc1-c1ccccc1)CC2 [Example 7.01.29]

>  <Quantity Kind>
pEC50

>  <Observed>
6.79

$$$$
>  <Molecule>
Cc1nc2c(o1)CN(C(=O)Cn1cc(-c3ccc(F)c(C)c3)nc1-c1ccccc1)CC2 [Example 7.01.03.]

>  <Quantity Kind>
pEC50

>  <Observed>
7.05

$$$$
>  <Molecule>
Cc1cc(-c2cn(CC(=O)N3CCc4ncsc4CC3)c(-c3ccccc3)n2)ccc1F [Example 7.01.30]

>  <Quantity Kind>
pEC50

>  <Observed>
6.82

$$$$
